Value source: PubChem BioAssay AID651699

# assay.system: NEDD8-conjugating enzyme Ubc12 (Homo sapiens) + NEDD8-activating enzyme E1 regulatory subunit (Homo sapiens) (UniProt P61081+Q13564)
# Sequence (P61081 whole entry, looked up): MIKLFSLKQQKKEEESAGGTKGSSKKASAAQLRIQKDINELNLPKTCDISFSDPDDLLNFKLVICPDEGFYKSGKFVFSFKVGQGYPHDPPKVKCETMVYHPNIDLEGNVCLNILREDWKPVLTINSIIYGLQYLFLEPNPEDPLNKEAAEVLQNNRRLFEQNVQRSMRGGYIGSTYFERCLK
# Sequence (Q13564 whole entry, looked up): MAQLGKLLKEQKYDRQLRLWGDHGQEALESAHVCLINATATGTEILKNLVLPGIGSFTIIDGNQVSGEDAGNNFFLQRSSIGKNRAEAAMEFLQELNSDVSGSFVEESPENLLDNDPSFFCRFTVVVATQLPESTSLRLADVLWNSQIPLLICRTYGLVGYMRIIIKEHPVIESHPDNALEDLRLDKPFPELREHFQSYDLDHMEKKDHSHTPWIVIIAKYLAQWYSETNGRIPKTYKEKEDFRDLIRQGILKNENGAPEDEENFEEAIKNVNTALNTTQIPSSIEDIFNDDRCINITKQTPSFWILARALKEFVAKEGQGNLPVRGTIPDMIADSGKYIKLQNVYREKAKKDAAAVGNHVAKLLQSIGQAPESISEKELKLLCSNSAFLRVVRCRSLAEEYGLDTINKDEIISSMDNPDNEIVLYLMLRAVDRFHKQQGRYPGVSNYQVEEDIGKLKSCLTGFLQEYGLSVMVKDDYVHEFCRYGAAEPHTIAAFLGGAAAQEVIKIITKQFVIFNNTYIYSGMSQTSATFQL
# test.protocol: inhibitors of cullin neddylation, primary screen, biochemical, TR-FRET, uHTS, NAE and Ubc12 (AID 651699)
# applied.conditions: at 25 µM, hits give high values
The whole screen tested about 360,000 compounds, of which about 2,100 (0.58%) were called active. Shown is part of a subset that was picked to be rich in actives.
Entries and their inhibition
measurement.type: inhibition (%)

>  <compound>
Cc1ccc2cc(C#N)c(NCCNC(=S)NCCCN3CCOCC3)nc2c1

>  <unit.descriptor>
%

>  <endpoint.result>
50.7

$$$$
>  <compound>
O=C(NCc1nnnn1-c1ccc(Cl)cc1)c1ccc2c(c1)OCO2

>  <unit.descriptor>
%

>  <endpoint.result>
-5.24

$$$$
>  <compound>
CC(=O)Nc1cc(-c2ccc(N3CCN(C)CC3)cc2)cn2c(-c3cccc(C(=O)N(C)C)c3)cnc12

>  <unit.descriptor>
%

>  <endpoint.result>
0.78

$$$$
>  <compound>
COC(=O)C1=CN(c2ccc(F)c(F)c2)C=C(C(=O)OC)C1c1ccc([N+](=O)[O-])cc1

>  <unit.descriptor>
%

>  <endpoint.result>
-12.5

$$$$
>  <compound>
Cc1cc(C)c2[nH]c(=O)c(CN(Cc3ccccc3)C(=S)NCCCN(C)C)cc2c1

>  <unit.descriptor>
%

>  <endpoint.result>
2.15

$$$$
>  <compound>
CCOC(=O)c1cc(C(C)C)sc1NC(=O)COC(=O)c1nccnc1N

>  <unit.descriptor>
%

>  <endpoint.result>
45.2

$$$$
>  <compound>
CCOC(=O)CSc1nc2c(c(=O)n(Cc3ccccc3Cl)c(=O)n2C)n1C

>  <unit.descriptor>
%

>  <endpoint.result>
-3.76

$$$$
>  <compound>
COCCNC(=S)N1CCN(C)CC1

>  <unit.descriptor>
%

>  <endpoint.result>
2.77

$$$$
>  <compound>
CC(OC(=O)c1cc2ccccc2o1)C(=O)Nc1ccc(N2CCOCC2)cc1 (configuration not stated)

>  <unit.descriptor>
%

>  <endpoint.result>
2.93

$$$$
>  <compound>
COc1ccc(C(=O)NC(C)c2nccs2)cc1OC1CCN(C(C)C)CC1 (configuration not stated)

>  <unit.descriptor>
%

>  <endpoint.result>
-0.68

$$$$
>  <compound>
CCN(CC(=O)Nc1c(F)cccc1F)C(=O)c1ccc(-c2ccccc2)cc1

>  <unit.descriptor>
%

>  <endpoint.result>
4.05

$$$$
>  <compound>
CCOc1ccc(N(C(=O)c2snc(C(N)=O)c2N)C(C(=O)NCC2CCCO2)c2c[nH]c3ccccc23)cc1 (configuration not stated)

>  <unit.descriptor>
%

>  <endpoint.result>
7.52

$$$$
>  <compound>
Cc1cc(C)cc(NC(=S)NCCCN2CCOCC2)c1

>  <unit.descriptor>
%

>  <endpoint.result>
0.98

$$$$
>  <compound>
CCOc1ccc(NC(=O)CN(C)C(=O)Cc2sc(C)nc2-c2ccc(F)cc2)cc1OCC

>  <unit.descriptor>
%

>  <endpoint.result>
-1.44

$$$$
>  <compound>
C=CCC(CC=C)(C(N)=O)c1ccccc1

>  <unit.descriptor>
%

>  <endpoint.result>
-5.36

$$$$
>  <compound>
CCCCCN(C(=O)NC(=O)Nc1ccccc1C)S(C)(=O)=O

>  <unit.descriptor>
%

>  <endpoint.result>
-3.04

$$$$
>  <compound>
O=C(OCCOCn1cc(Br)c(=O)[nH]c1=O)c1ccccc1

>  <unit.descriptor>
%

>  <endpoint.result>
1.74

$$$$
>  <compound>
Cc1cc(C)c2cc(CN(Cc3cccs3)Cc3nnnn3CC3CCCO3)c(=O)[nH]c2c1 (configuration not stated)

>  <unit.descriptor>
%

>  <endpoint.result>
-8.71

$$$$
>  <compound>
CCN(CC(=O)Nc1c(F)cccc1F)C(=O)c1cnc(C)cn1

>  <unit.descriptor>
%

>  <endpoint.result>
-6.81

$$$$
>  <compound>
CCNC(=O)CN(c1ccc(C)cc1)S(=O)(=O)c1ccc(SC)cc1

>  <unit.descriptor>
%

>  <endpoint.result>
-3.17

$$$$
>  <compound>
CCOC(=O)c1cnn(Cc2ccccc2Cl)c1N

>  <unit.descriptor>
%

>  <endpoint.result>
4.25

$$$$
>  <compound>
O=C(Nc1cc(-c2nn(CC(=O)N3CCCCC3)c(=O)c3ccccc23)ccc1N1CCOCC1)c1ccc(Cl)cc1

>  <unit.descriptor>
%

>  <endpoint.result>
20.1

$$$$

====

# assay.system: NEDD8-conjugating enzyme Ubc12 (Homo sapiens) + NEDD8-activating enzyme E1 regulatory subunit (Homo sapiens) (UniProt P61081+Q13564)
# test.protocol: inhibitors of cullin neddylation, primary screen, biochemical, TR-FRET, uHTS, NAE and Ubc12 (AID 651699)
# applied.conditions: at 25 µM
Out of some 360,000 compounds screened, about 2,100 (0.58%) were called active. Rule as the data show it: active = inhibition above about 36%; inactive = the rest. Many of the other results were omitted from the sample, so actives are more common in it than they were.
Possible outcomes: true = active, false = inactive

>  <compound>
O=C(Nc1c(Br)cc2c(c1Br)Cc1ccccc1-2)C(F)(F)F

>  <classification>
false

$$$$
>  <compound>
Cc1nc2ccc(S(=O)(=O)NCC(=O)O)cc2s1

>  <classification>
false

$$$$
>  <compound>
CC(C)c1cc(C(=O)N/N=C/c2ccoc2)c(O)c(C(C)C)c1

>  <classification>
true

$$$$
>  <compound>
CC(Oc1ccccc1[N+](=O)[O-])C(=O)N/N=C/c1ccoc1 (stereo unspecified)

>  <classification>
false

$$$$
>  <compound>
CN(CC(=O)Nc1ccc(F)c(F)c1F)C(=O)C1CC(=O)N(C2CCCC2)C1 (stereo unspecified)

>  <classification>
false

$$$$
>  <compound>
COc1ccc(N2CCN(C(c3cc4ccc(C)cc4[nH]c3=O)c3nnnn3C3CCCC3)CC2)cc1 (stereo unspecified)

>  <classification>
false

$$$$
